experimental_target: eqBChE (BChE from equine serum) (Equus caballus)
Construct: BChE (E.C. 3.1.1.8, from equine serum); purchased Sigma-Aldrich; host or cells: equine serum
test_details: biochemical
reported_conditions: incubation time 10 min; read-out: IC50 eqBChE under different incubation time

compound: c1ccc(-c2ccc(-c3ccn(-c4ccccc4)c3)cc2)cc1 [Compound 3s]
IC50: 5.95 µM

compound: Clc1ccccc1-c1ccn(-c2ccccc2)c1 [Compound 3p]
IC50: 0.48 µM

compound: COc1ccccc1-c1ccn(-c2ccccc2)c1 [Compound 3o]
IC50: 5.06 µM

* * *

experimental_target: eqBChE (BChE from equine serum) (Equus caballus, UniProt P81908)
Construct: BChE (E.C. 3.1.1.8, from equine serum); purchased Sigma-Aldrich; host or cells: equine serum
Sequence (P81908 whole entry): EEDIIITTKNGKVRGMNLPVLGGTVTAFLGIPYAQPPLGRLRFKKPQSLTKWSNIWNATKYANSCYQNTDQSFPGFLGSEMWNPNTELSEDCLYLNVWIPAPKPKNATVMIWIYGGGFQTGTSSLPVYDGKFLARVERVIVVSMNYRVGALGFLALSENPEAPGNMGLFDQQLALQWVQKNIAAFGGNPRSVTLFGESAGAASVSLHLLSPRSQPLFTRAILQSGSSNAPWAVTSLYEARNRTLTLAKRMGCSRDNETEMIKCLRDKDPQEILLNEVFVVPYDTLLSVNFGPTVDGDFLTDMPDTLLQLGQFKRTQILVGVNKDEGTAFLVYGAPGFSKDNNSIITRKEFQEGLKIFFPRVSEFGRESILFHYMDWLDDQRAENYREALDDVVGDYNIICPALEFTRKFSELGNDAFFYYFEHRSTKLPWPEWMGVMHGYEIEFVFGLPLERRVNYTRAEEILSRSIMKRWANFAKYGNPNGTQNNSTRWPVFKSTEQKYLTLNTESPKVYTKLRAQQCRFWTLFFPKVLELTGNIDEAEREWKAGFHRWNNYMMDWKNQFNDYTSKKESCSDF
test_details: biochemical
reported_conditions: incubation time 65 min; read-out: IC50 eqBChE under different incubation time

structure_smiles: COc1ccccc1-c1ccn(-c2ccccc2)c1
experimental_target: eqBChE (BChE from equine serum) (Equus caballus, UniProt P81908)
readout_units: µM
IC50: 6.83
--
structure_smiles: Clc1ccccc1-c1ccn(-c2ccccc2)c1
experimental_target: eqBChE (BChE from equine serum) (Equus caballus, UniProt P81908)
readout_units: µM
IC50: 3.27
--
structure_smiles: c1ccc(-c2ccc(-c3ccn(-c4ccccc4)c3)cc2)cc1
experimental_target: eqBChE (BChE from equine serum) (Equus caballus, UniProt P81908)
readout_units: µM
IC50: 4.21
